The reported numbers originate from patent US12404239B2.

Give Percent BCL6 remaining at maximal degradation (Ycon) for every item shown.
Target: BCL6 (Homo sapiens, UniProt P41182)
Construct: HiBiT-tag knocked into endogenous BCL6 locus using CRISPR; endogenous in cells; host or cells: DHL-4_BCL6_HiBiT cells (CRISPR knock-in)
Assay: BCL6_HiBiT degradation assay (2 h)
Format: cell-based
Details: DHL-4_BCL6_HiBiT cells, read-out: YCon (% remaining maximal effect)

Below: 2 molecules and their reported Percent BCL6 remaining at maximal degradation (Ycon).
Molecule: CN1C(=O)Cc2cc(Nc3nc(N4CCC(N(C)c5ccc6c(C7CCC(=O)NC7=O)nn(C)c6c5)CC4)ncc3Cl)ccc21 (stereo not drawn)
Recorded Value: > 60%
//
Molecule: CC(C)N1C(=O)Cc2cc(Nc3nc(N4CC[C@@H](Nc5ccc6c(C7CCC(=O)NC7=O)nn(C)c6c5)[C@H](C)C4)ncc3Cl)ccc21 (stereo partly drawn)
Recorded Value: < 20%

// moving on: another record for Percent BCL6 remaining at maximal degradation (Ycon)
Consider C[C@@H]1CN(c2ncc(Cl)c(Nc3ccc4c(c3F)CC(=O)N4C)n2)CC[C@H]1Nc1ccc2c(C3CCC(=O)NC3=O)nn(C)c2c1 (stereo partly drawn) . Its measured Percent BCL6 remaining at maximal degradation (Ycon) is < 20%
